System: healthy adult Sprague–Dawley male rats
Experiment description: In vivo toxicity study, 6 weeks oral daily
Design: species or system rat
Recorded conditions: plasma, oral daily 6 weeks, dose equimolar to celecoxib 20 mg/kg; mean ± SEM, n = 6

- Compound: "COc1ccc(/C=N/Nc2ncnc3c2cnn3-c2ccccc2)cc1OC [Compound D2]"
  Target of assay: "healthy adult Sprague–Dawley male rats"
  ALT (U/L): 39.66
- Compound: "Cc1ccc(-c2cc(C(F)(F)F)nn2-c2ccc(S(N)(=O)=O)cc2)cc1 [Celecoxib, celecoxib, reference compound]"
  Target of assay: "healthy adult Sprague–Dawley male rats"
  ALT (U/L): 42
- Compound: "COc1ccc(/C=N/Nc2ncnc3c2cnn3-c2ccccc2)cc1 [Compound D1]"
  Target of assay: "healthy adult Sprague–Dawley male rats"
  ALT (U/L): 49.66
- Compound: "COc1cc(/C=N/Nc2ncnc3c2cnn3-c2ccccc2)cc(OC)c1OC"
  Target of assay: "healthy adult Sprague–Dawley male rats"
  ALT (U/L): 37.83

====

Item-by-item account of Creatinine
Test system: healthy adult Sprague–Dawley male rats
Experiment description: In vivo toxicity study, 6 weeks oral daily
Parameters: species or system rat
Recorded conditions: plasma, oral daily 6 weeks, dose equimolar to celecoxib 20 mg/kg; mean ± SEM, n = 6

- Molecule: "COc1ccc(/C=N/Nc2ncnc3c2cnn3-c2ccccc2)cc1OC [Compound D2]"
  Display unit: "mg/dL"
  Creatinine: 0.37
- Molecule: "Cc1ccc(-c2cc(C(F)(F)F)nn2-c2ccc(S(N)(=O)=O)cc2)cc1 [Celecoxib, celecoxib, reference compound]"
  Display unit: "mg/dL"
  Creatinine: 0.35
- Molecule: "COc1cc(/C=N/Nc2ncnc3c2cnn3-c2ccccc2)cc(OC)c1OC [Compound D3]"
  Display unit: "mg/dL"
  Creatinine: 0.42
- Molecule: "COc1ccc(/C=N/Nc2ncnc3c2cnn3-c2ccccc2)cc1 [Compound D1]"
  Display unit: "mg/dL"
  Creatinine: 0.36

====

Item-by-item account of Cholesterol
System: healthy adult Sprague–Dawley male rats
Experiment description: In vivo toxicity study, 6 weeks oral daily
Set-up: species or system rat
Recorded conditions: plasma, oral daily 6 weeks, dose equimolar to celecoxib 20 mg/kg; mean ± SEM, n = 6
Quantity kind: Cholesterol

- Compound: "COc1ccc(/C=N/Nc2ncnc3c2cnn3-c2ccccc2)cc1OC [Compound D2]"
  Quantity kind: "Cholesterol"
  Result: "67 ± 6.47 mg/dL"
- Compound: "COc1cc(/C=N/Nc2ncnc3c2cnn3-c2ccccc2)cc(OC)c1OC"
  Quantity kind: "Cholesterol"
  Result: "62.33 ± 1.68 mg/dL"
- Compound: "Cc1ccc(-c2cc(C(F)(F)F)nn2-c2ccc(S(N)(=O)=O)cc2)cc1 [Celecoxib, celecoxib, reference compound]"
  Quantity kind: "Cholesterol"
  Result: "52.5 ± 2.21 mg/dL"
- Compound: "COc1ccc(/C=N/Nc2ncnc3c2cnn3-c2ccccc2)cc1 [Compound D1]"
  Quantity kind: "Cholesterol"
  Result: "71.66 ± 7 mg/dL"

====

Tested on: healthy adult Sprague–Dawley male rats
Experiment description: In vivo toxicity study, 6 weeks oral daily
Set-up: species or system rat
Recorded conditions: plasma, oral daily 6 weeks, dose equimolar to celecoxib 20 mg/kg; mean ± SEM, n = 6
Quantity kind: Total Bilirubin (mg/dL)

- Compound: "COc1ccc(/C=N/Nc2ncnc3c2cnn3-c2ccccc2)cc1OC [Compound D2]"
  Quantity kind: "Total Bilirubin"
  Readout number: 0.071
- Compound: "Cc1ccc(-c2cc(C(F)(F)F)nn2-c2ccc(S(N)(=O)=O)cc2)cc1 [Celecoxib, celecoxib, reference compound]"
  Quantity kind: "Total Bilirubin"
  Readout number: 0.084
- Compound: "COc1ccc(/C=N/Nc2ncnc3c2cnn3-c2ccccc2)cc1 [Compound D1]"
  Quantity kind: "Total Bilirubin"
  Readout number: 0.073
- Compound: "COc1cc(/C=N/Nc2ncnc3c2cnn3-c2ccccc2)cc(OC)c1OC [Compound D3]"
  Quantity kind: "Total Bilirubin"
  Readout number: 0.076
